Sourced from patent US20050234030A1

Mark Y only for melting point values smaller than 200 °C; exact matches and larger values are N.

Q. is_below(melting point, 200 °C) for COc1cc2c(CC(=O)O)c(C)n(C(=O)c3cccs3)c2cc1F ?
A. Y

Q. is_below(melting point, 200 °C) for COc1ccc2c(c1)c(CC(=O)O)c(C)n2C(=O)C1CCCCC1 ?
A. Y

Q. is_below(melting point, 200 °C) for COc1cc2c(CC(=O)O)c(C)n(C(=O)C3CCCCC3)c2cc1F ?
A. Y

Q. is_below(melting point, 200 °C) for Cc1c(CC(=O)O)c2cc(O)c(F)cc2n1C(=O)c1cccs1 ?
A. N

Q. is_below(melting point, 200 °C) for Cc1c(CC(=O)O)c2cc(O)ccc2n1C(=O)N1CCCCC1 ?
A. N
